Consider the following molecules; for each one, report its LD50 value.
- Test system: normal mice
- ASSAY_REMARKS: Acute toxic effect of platinum complex on normal mice (LD50, single intravenous administration)
- Assay type: in vivo, Kunming mice
- ASSAY_CONDITIONS: single intravenous administration in 5% glucose solution, 14 days observation, Bliss method
Lab book: enter the figure in mmol/kg, no units written.

Entry CCN(CC)CCC(CC(=O)[O-])C(=O)[O-].NC1CCC(N)CC1.[Pt+2] (stereo not shown) ; LD50 value = 0.459

Value of measured LD50 value for the entry CCN(CC)CCCCC1CC(=O)[O][Pt]2([NH]C3CCCCC3[NH]2)[O]C1=O.O=P(O)(O)O (stereo not shown) : 0.698

Entry CCN(CC)CCC(CC(=O)[O-])C(=O)[O-].NC1CCCCC1N.[Pt+2] (racemic) , LD50 value reported as 0.595

According to the records, this molecule NC(CC(=O)[O-])C(=O)[O-].NC1CCCCC1N.[Pt+2] (racemic) [ADP, reference compound] displays LD50 value of 0.332

The recorded LD50 value for entry CN(C)CCC1CC(=O)[O][Pt]2([NH]CC(CO)(CO)C[NH]2)[O]C1=O (stereo not shown) equals 0.452

The value of LD50 value measured for the molecule CC(=O)NC(CC(=O)[O-])C(=O)[O-].NC1CCCCC1N.[Pt+2] (stereo not shown) [Contrast Embodiment 1, reference compound] turned out to be 0.092

Per the records, this molecule ( NCCC(CC(=O)[O-])C(=O)[O-].N[C@@H]1CCCC[C@H]1N.[Pt+2] (relative stereo) ) has LD50 value equal to 0.429

====

- Tested on: Lung cancer H292
- ASSAY_REMARKS: MTT cytotoxicity, lung cancer H292
- Type: cell-based
- ASSAY_CONDITIONS: n = 6, Lung cancer H292
Please respond with reported pIC50 for every item in the list.
Expect pIC50 as a plain number equal to -log10 of the molar concentration.

Consider CCN(CC)CCC1CC(=O)[O][Pt]2([NH]C(CO)C(CO)[NH]2)[O]C1=O (centres unmarked) . Its measured pIC50 is 4.68

pIC50 for CCN(CC)CCCC1CC(=O)[O][Pt]2([NH]C3CCC3[NH]2)[O]C1=O (centres unmarked) is 5.10

Input CN(C)CCC(CC(=O)[O-])C(=O)[O-].NCC1CCC1CN.[Pt+2] (racemic) . Output pIC50: 4.29

Value of pIC50 reported for the compound CN(C)CCC(CC(=O)[O-])C(=O)[O-].NCCN.[Pt+2] (centres unmarked) is 4.51

Entry CCN(CC)CCC1CC(=O)[O][Pt]2([NH]CCC[NH]2)[O]C1=O (centres unmarked) — recorded pIC50 = 3.99

Briefly, pIC50 measured for CCN(CC)CCCCC1CC(=O)[O][Pt]2([NH]C3CCCCC3[NH]2)[O]C1=O.O=P(O)(O)O (centres unmarked) : 5.52

So for CCCN(CCC)CCCC(CC(=O)[O-])C(=O)[O-].N[C@@H]1CCCC[C@H]1N.[Pt+2] (centres unmarked) , the logged pIC50 turned out to be 5.05

Quick note, pIC50 for CCN(CC)CCCCC(CC(=O)[O-])C(=O)[O-].NCCN.[Pt+2] (centres unmarked) landed at 4.00
